# System: Hepatocyte (normal human liver cell)
# run.description: Test about the suppression of cell growth (MTT)
# Format: cell-based
# condition.description: 72 h, 3 days
# Procedure: Various cancer cells and normal cell as cultured in a culture broth to 70 to 90% confluency were used. After the culture broth was removed, 0.25% trypsin/1 mM-EDTA solution was added to scrape off the cells and count the cells. Then, a cell suspension of 5×10^4 cells/ml was prepared. The suspension was divided at 90 μl/well into a 96-well plate, and allowed to stand alone in a CO2 incubator. […]
readout.label: IC50 (nM)
Unit nM implied. Number only.

Consider the molecule shown here: C/C(=C\C=C\[C@@H]1[C@H]2[C@H](C)[C@@H](O)[C@H](C)C[C@@H]2C=C[C@@H]1C)C(=O)NCc1cccnc1 [Example 5] What is its recorded IC50?
430
